biological target: Muscarinic M1 (Homo sapiens, UniProt P11229); assay: radioligand displacement; type: binding
Sequence (P11229 whole entry): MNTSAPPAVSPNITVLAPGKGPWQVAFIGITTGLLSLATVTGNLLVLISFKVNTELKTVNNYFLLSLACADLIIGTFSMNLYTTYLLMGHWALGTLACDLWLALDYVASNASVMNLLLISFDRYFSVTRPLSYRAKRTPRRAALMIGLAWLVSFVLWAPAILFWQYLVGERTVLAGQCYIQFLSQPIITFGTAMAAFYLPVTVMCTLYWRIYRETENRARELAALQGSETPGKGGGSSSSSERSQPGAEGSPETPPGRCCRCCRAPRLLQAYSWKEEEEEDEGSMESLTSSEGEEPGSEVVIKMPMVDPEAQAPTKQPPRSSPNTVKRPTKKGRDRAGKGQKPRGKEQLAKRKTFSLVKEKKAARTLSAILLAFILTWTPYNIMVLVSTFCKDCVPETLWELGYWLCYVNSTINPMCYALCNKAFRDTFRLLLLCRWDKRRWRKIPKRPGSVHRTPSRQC
measure_name: IC50

Data request, read-out IC50, for CC(=O)c1ccc2c(c1)C1C=CCC1C(c1cc3c(cc1Br)OCO3)N2 (stereo not shown) [G-1]
> 10 µM

----------
target: Cannabinoid CB2 (Homo sapiens)
Sequence (P34972 whole entry): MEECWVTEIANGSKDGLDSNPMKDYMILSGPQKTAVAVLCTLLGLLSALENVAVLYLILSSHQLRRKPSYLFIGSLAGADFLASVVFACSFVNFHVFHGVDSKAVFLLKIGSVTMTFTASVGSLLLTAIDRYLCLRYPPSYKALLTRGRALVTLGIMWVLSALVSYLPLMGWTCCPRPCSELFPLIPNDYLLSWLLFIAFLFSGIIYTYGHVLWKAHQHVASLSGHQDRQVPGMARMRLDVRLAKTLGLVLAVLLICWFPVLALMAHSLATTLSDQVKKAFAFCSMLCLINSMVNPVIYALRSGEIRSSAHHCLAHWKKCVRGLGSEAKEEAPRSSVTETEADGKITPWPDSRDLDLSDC
measure_name: IC50

I'm curious: which IC50 was measured for CC(=O)c1ccc2c(c1)C1C=CCC1C(c1cc3c(cc1Br)OCO3)N2 (stereo not shown) [G-1] tested on Cannabinoid CB2 (Homo sapiens)?
> 10 µM

----------
Sequence of the target: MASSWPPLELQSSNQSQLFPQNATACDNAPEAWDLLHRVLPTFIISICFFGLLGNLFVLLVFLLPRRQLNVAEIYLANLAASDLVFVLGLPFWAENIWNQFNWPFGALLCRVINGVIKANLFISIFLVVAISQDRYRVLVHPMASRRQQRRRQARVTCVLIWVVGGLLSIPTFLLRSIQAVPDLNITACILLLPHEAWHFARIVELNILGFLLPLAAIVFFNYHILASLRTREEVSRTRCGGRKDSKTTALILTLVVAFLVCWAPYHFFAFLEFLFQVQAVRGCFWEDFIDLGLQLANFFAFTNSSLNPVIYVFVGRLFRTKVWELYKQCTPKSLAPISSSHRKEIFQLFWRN
measure_name: IC50

// query IC50 value for entry CC(=O)c1ccc2c(c1)C1C=CCC1C(c1cc3c(cc1Br)OCO3)N2 (stereo not shown)
> 10 µM

----------
Target: Adrenergic α1D (Homo sapiens)
Sequence (P25100 1-572): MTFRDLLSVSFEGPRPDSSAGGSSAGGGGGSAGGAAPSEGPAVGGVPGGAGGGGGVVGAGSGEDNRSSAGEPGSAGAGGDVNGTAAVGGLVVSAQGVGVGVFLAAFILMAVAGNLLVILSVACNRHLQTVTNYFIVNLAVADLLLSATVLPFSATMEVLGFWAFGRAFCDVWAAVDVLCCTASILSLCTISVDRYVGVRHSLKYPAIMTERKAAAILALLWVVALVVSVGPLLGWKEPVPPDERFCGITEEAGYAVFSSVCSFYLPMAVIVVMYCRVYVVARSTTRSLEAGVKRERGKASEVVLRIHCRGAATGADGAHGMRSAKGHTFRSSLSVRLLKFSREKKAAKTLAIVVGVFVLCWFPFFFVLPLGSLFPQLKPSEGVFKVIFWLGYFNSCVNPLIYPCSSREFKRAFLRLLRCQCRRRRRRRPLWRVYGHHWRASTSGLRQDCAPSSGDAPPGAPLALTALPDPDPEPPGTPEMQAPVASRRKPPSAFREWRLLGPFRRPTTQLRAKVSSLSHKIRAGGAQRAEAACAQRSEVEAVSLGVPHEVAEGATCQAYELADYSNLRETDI
pIC50: −log10 of the molar value.
measure_name: pIC50

So what does the record say about pIC50 for CC(=O)c1ccc2c(c1)C1C=CCC1C(c1cc3c(cc1Br)OCO3)N2 (stereo not shown) [G-1] ?
< 5.00

----------
biological target: Endothelin ETA (Homo sapiens, UniProt P25101)
Sequence (P25101 21-427): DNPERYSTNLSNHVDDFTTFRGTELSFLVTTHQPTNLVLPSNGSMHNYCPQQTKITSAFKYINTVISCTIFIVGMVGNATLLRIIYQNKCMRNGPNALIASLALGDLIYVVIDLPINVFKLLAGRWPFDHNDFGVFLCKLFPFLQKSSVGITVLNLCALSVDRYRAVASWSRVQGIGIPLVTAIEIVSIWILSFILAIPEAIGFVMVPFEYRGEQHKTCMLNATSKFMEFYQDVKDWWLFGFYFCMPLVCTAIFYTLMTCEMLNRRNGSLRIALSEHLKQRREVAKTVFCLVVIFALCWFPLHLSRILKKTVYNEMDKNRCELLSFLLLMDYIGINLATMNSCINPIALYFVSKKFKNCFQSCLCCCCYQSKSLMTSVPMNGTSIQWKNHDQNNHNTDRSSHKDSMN
pIC50: −log10 of the molar value.
measure_name: pIC50

Recorded pIC50 of CC(=O)c1ccc2c(c1)C1C=CCC1C(c1cc3c(cc1Br)OCO3)N2 (stereo not shown) , please.
< 5.00

----------
target: Estrogen ERβ (Homo sapiens, UniProt Q92731)
Sequence (Q92731 whole entry): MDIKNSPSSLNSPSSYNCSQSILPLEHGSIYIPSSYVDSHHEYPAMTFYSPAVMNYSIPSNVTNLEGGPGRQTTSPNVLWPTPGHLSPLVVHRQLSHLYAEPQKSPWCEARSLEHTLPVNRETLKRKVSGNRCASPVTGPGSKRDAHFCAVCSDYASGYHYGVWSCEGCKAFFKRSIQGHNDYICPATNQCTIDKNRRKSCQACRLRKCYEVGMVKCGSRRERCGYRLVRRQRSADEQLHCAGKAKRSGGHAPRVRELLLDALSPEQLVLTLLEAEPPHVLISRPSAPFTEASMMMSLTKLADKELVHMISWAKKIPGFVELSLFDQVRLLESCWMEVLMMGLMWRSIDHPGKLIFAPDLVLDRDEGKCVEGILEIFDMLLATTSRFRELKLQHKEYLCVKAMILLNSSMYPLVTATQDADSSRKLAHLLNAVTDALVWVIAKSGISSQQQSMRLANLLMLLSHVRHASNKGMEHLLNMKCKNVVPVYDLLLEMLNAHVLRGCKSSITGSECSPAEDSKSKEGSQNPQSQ
pIC50: −log10 of the molar value.
measure_name: pIC50

Value wanted: pIC50 (Estrogen ERβ (Homo sapiens, UniProt Q92731)) of entry CC(=O)c1ccc2c(c1)C1C=CCC1C(c1cc3c(cc1Br)OCO3)N2 (stereo not shown)
< 5.00

----------
molecular target: Somatostatin sst1 (Homo sapiens)
Sequence (P30872 whole entry): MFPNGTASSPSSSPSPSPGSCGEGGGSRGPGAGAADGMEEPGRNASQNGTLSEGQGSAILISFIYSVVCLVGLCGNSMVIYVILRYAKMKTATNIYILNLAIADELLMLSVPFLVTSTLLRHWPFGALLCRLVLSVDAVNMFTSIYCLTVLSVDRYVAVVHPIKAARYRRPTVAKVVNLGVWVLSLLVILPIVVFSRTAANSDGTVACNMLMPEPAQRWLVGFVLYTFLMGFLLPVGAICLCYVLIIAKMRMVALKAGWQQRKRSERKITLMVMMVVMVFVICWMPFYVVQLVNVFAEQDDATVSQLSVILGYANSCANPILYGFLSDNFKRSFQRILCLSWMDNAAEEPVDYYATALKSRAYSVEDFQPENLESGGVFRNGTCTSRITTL
measure_name: IC50

Item: CC(=O)c1ccc2c(c1)C1C=CCC1C(c1cc3c(cc1Br)OCO3)N2 (stereo not shown) [G-1] Test system: Somatostatin sst1 (Homo sapiens) Read-out: IC50 Value: ?
> 10 µM

----------
Molecular target: Neuropeptide Y1 (Homo sapiens, UniProt P25929)
Sequence (P25929 1-384): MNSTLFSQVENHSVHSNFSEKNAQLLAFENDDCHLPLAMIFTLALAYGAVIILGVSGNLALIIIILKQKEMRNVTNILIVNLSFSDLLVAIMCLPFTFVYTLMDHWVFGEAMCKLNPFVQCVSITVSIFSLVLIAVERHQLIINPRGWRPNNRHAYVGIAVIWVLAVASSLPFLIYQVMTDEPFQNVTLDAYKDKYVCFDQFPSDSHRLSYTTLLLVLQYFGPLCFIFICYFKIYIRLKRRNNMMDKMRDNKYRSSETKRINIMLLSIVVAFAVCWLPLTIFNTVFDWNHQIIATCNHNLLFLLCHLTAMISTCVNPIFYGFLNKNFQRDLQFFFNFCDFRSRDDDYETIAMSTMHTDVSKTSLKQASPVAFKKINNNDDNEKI
measure_name: IC50

// query IC50 value for entry CC(=O)c1ccc2c(c1)C1C=CCC1C(c1cc3c(cc1Br)OCO3)N2 (stereo not shown) [G-1]
> 10 µM

----------
target: Angiotensin AT1 (Homo sapiens)
Sequence (P30556 whole entry): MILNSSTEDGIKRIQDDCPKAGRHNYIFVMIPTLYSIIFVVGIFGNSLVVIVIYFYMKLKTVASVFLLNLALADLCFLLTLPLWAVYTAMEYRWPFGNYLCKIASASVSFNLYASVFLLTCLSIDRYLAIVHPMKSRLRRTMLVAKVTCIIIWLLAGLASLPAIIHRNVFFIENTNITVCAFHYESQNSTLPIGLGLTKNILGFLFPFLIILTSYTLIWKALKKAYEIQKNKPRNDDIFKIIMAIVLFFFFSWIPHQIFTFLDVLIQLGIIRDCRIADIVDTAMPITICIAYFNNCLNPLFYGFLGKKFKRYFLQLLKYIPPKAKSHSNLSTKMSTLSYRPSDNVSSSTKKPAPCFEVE
pIC50: −log10 of the molar value.
measure_name: pIC50

Missing value: pIC50, Angiotensin AT1 (Homo sapiens), entry CC(=O)c1ccc2c(c1)C1C=CCC1C(c1cc3c(cc1Br)OCO3)N2 (stereo not shown) [G-1] . Fill in?
< 5.00

----------
Target sequence: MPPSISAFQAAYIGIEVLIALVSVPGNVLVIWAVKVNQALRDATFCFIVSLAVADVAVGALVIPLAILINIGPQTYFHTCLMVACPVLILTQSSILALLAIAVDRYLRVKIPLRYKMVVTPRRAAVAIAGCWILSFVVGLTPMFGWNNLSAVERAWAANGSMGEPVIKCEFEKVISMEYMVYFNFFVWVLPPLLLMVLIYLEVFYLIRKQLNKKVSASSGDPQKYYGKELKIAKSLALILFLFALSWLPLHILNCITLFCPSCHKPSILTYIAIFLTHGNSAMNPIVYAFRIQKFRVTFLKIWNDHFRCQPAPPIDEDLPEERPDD
measure_name: IC50

So what's the measured IC50 for this one? CC(=O)c1ccc2c(c1)C1C=CCC1C(c1cc3c(cc1Br)OCO3)N2 (stereo not shown)
> 10 µM

----------
Target: Chemokine CCR1 (Homo sapiens, UniProt P32246)
Sequence (P32246 1-355): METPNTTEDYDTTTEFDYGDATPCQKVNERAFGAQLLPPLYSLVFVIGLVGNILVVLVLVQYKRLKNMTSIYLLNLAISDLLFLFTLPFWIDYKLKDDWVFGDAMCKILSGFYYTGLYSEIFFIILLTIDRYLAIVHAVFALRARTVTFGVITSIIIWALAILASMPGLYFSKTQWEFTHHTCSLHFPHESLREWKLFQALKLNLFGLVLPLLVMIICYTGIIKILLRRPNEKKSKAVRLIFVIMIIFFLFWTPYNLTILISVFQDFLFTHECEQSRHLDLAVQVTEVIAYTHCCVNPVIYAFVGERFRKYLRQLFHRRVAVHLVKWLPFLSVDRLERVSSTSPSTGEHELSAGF
pIC50: −log10 of the molar value.
measure_name: pIC50

// pIC50 lookup, key: CC(=O)c1ccc2c(c1)C1C=CCC1C(c1cc3c(cc1Br)OCO3)N2 (stereo not shown)
< 5.00

The reported numbers originate from paper PMC2873862.
